The measurements presented in this section are drawn from patent US20260184782A1.

# subjectOfTest: T1, human TIGIT-Fc (human, UniProt Q495A1 22-141, limits assumed)
# T1 construct: not shown: Fc; not described
# T1 sequence (looked up): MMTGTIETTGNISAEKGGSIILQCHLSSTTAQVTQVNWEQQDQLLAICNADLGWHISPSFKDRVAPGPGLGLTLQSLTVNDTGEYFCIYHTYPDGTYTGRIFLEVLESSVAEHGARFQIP
# methodNotes: CD155 competition ELISA, single point; further: test concentration or dose not given here
Threshold 0.5 OD. OD (450 nm) below it: label 1. OD (450 nm) at it or above: label 0.

Input TIGIT-SC76 (Fc fusion, VHH-Fc) VHH: EVQLVESGGGLVQPGGSLRLSCAASGFTFSDYAMGWFRQAPGKERELVARIGHDGSTDYADSVKGRFTISADNSKNTAYLQMNSLKPEDTAVYYCLGGLDPWGQGTLVTVSS ; condition: OD (450 nm) strictly below 0.5 OD. Does it hold?
label 0

Now consider TIGIT-SC45 (Fc fusion, VHH-Fc) VHH: EVQLVESGGGLVQPGGSLRLSCAASGGTFNAMGWFRQAPGKEREWVASVLRGGYTWYADSVKGRFTISADNSKNTAYLQMNSLKPEDTAVYYCAKDGGSSGTYQNWWGQGTLVTVSS and answer again.
label 1

Now consider TIGIT-SC25 (Fc fusion, VHH-Fc) VHH: EVQLVESGGGLVQPGGSLRLSCAASGNTFSGGFMGWFRQAPGKEREWVASVLRGGYTWYADSVKGRFTISADNSKNTAYLQMNSLKPEDTAVYYCTTVGYGDYWGQGTLVTVSS and answer again.
label 1

Now consider TIGIT-SC154 (Fc fusion, VHH-Fc) VHH: EVQLVESGGGLVQPGGSLRLSCAASGFAFSSDWMGWFRQAPGKEREWVASVLRGGYTWYADSVKGRFTISADNSKNTAYLQMNSLKPEDTAVYYCAGDYRGFEMAFDPWGQGTLVTVSS and answer again.
label 1

Now consider TIGIT-SC7 (Fc fusion, VHH-Fc) VHH: EVQLVESGGGLVQPGGSLRLSCAASGRSFSMYVMGWFRQAPGKEREGVSFISGSDGSTLYADSVKGRFTISADNSKNTAYLQMNSLKPEDTAVYYCARGSIAARPVFFDYWGQGTLVTVSS and answer again.
label 0

Now consider TIGIT-SC143 (Fc fusion, VHH-Fc) VHH: EVQLVESGGGLVQPGGSLRLSCAASGFTLGYYVMGWFRQAPGKEREFVAAISASGTLRAYADSVEGRFTISADNSKNTAYLQMNSLKPEDTAVYYCARAELGYSYGSVDGYWGQGTLVTVSS and answer again.
label 0

Now consider TIGIT-SC92 (Fc fusion, VHH-Fc) VHH: EVQLVESGGGLVQPGGSLRLSCAASGSTIENYAMGWFRQAPGKEREFVAAIDWSGGSTYYADSVKGRFTISADNSKNTAYLQMNSLKPEDTAVYYCARWRSIWSGYDDYYYMDVWGQGTLVTVSS and answer again.
label 0

Now consider TIGIT-SC37 (Fc fusion, VHH-Fc) VHH: EVQLVESGGGLVQPGGSLRLSCAASGNTFSGGFMGWFRQAPGKEREWVASVLRGGYTWYADSVKGRFTISADNSKNTAYLQMNSLKPEDTAVYYCVFGGVWQDVWGQGTLVTVSS and answer again.
label 1

Now consider TIGIT-SC55 (Fc fusion, VHH-Fc) VHH: EVQLVESGGGLVQPGGSLRLSCAASGFPFDDYAMGWFRQAPGKERELVAVIRWTGMNTHYADSVKGRFTISADNSKNTAYLQMNSLKPEDTAVYYCAKGIAVAGAFDYWGQGTLVTVSS and answer again.
label 1

Now consider TIGIT-SC196 (Fc fusion, VHH-Fc) VHH: EVQLVESGGGLVQPGGSLRLSCAASGFAFSSDWMGWFRQAPGKEREWVASVLRGGYTWYADSVKGRFTISADNSKNTAYLQMNSLKPEDTAVYYCATEGLGYWGQGTLVTVSS and answer again.
label 1

Now consider TIGIT-SC34 (Fc fusion, VHH-Fc) VHH: EVQLVESGGGLVQPGGSLRLSCAASGTTFSPYTMGWFRQAPGKEREFVASINSGSRTNYADSVKGRFTISADNSKNTAYLQMNSLKPEDTAVYYCVRSEIGWGQGTLVTVSS and answer again.
label 1

Now consider TIGIT-SC88 (Fc fusion, VHH-Fc) VHH: EVQLVESGGGLVQPGGSLRLSCAASGFTFSSDWMGWFRQAPGKEREFVAAINRSGHSTSYADSVKGRFTISADNSKNTAYLQMNSLKPEDTAVYYCARWGGVTFGGVYPLEYWGQGTLVTVSS and answer again.
label 1

Now consider TIGIT-SC31 (Fc fusion, VHH-Fc) VHH: EVQLVESGGGLVQPGGSLRLSCAASGRAFESYAMGWFRQAPGKERELVATIGWSGTDYADSVKGRFTISADNSKNTAYLQMNSLKPEDTAVYYCAKGYTSGLSDWGQGTLVTVSS and answer again.
label 1

Now consider TIGIT-SC133 (Fc fusion, VHH-Fc) VHH: EVQLVESGGGLVQPGGSLRLSCAASGFTLENNMMGWFRQAPGKEREFVAAISASGTLRAYADSVKGRFTISADNSKNTAYLQMNSLKPEDTAVYYCACGRVSGAFIYFDYWGQGTLVTVSS and answer again.
label 1
